- System: CAF#4 (primary prostate cancer-associated fibroblasts of iCAF-like type)
- method_description: drug sensitivity score (DSS2, normalised partial AUC of dose-response, 72 h CellTiter-Glo viability) (DSS (dimensionless)); higher = more sensitive (stronger growth inhibition / cytotoxicity); extreme values may be limits of the assay

# compound, drug sensitivity score
rows = [
    ("C=CC(=O)N1CCC(Oc2cc3c(Nc4ccc(Cl)c(Cl)c4F)ncnc3cc2OC)CC1 [Poziotinib] (tested concentration range 0.1-1000 nM)", 0),
    ("Cc1nc(=O)c2cc(CN(C)c3ccc(C(=O)N[C@@H](CCC(=O)O)C(=O)O)s3)ccc2[nH]1 [Raltitrexed] (tested concentration range 0.1-1000 nM)", 0.8),
    ("O=C(c1cccc(Cl)c1F)N1CCN(Cc2cccc(Nc3nccs3)n2)CC1 [MK-8745] (tested concentration range 1-10000 nM)", 1.1),
]
